Source: the supplement of paper PMC9112550

# Tested on: Escherichia coli TOP10
# experimental.details: shrunken log2 fold change of peptide-encoding DNA abundance (4.5 h post-induction vs induction); higher = less antimicrobial activity (less host growth inhibition)
# condition.summary: time post-induction: 4.5 h; library: site-saturation at positions 5, 18, 19, 20
The threshold is inclusive: shrunken log2 fold change of exactly 0.005 counts as fulfilled; values below receive not fulfilled.

Solved cases (5 shown):
- primary.sequence: "RRIRKRPPRLPRPRPRPGYCPRP"
  class.assignment: "not fulfilled"
- primary.sequence: "RRIRPRPPRLPRPRPRPFDMPRP"
  class.assignment: "fulfilled"
- primary.sequence: "RRIRKRPPRLPRPRPRPQTPPRP"
  class.assignment: "fulfilled"
- primary.sequence: "RRIRQRPPRLPRPRPRPMLRPRP"
  class.assignment: "not fulfilled"
- primary.sequence: "RRIRARPPRLPRPRPRPRASPRP"
  class.assignment: "fulfilled"

Prompt: Check the entry RRIRPRPPRLPRPRPRPYNWPRP : does shrunken log2 fold change equal or exceed 0.005?
Response: not fulfilled

Prompt: Confirm if shrunken log2 fold change reported for the sequence RRIRPRPPRLPRPRPRPMLKPRP is 0.005 or above.
Response: fulfilled

---

# Tested on: Escherichia coli TOP10
# experimental.details: shrunken log2 fold change of peptide-encoding DNA abundance (4.5 h post-induction vs induction); higher = less antimicrobial activity (less host growth inhibition)
# condition.summary: time post-induction: 4.5 h; library: site-saturation at positions 5, 18, 19, 20
Form field: shrunken log2 fold change (one value per entry).
Answer with the value's number alone.

Below, each entry is followed by its recorded shrunken log2 fold change result.
- primary.sequence: "RRIRNRPPRLPRPRPRPQWPPRP"
  shrunken log2 fold change: 0.00622
- primary.sequence: "RRIRERPPRLPRPRPRPPSGPRP"
  shrunken log2 fold change: 0.275
- primary.sequence: "RRIRQRPPRLPRPRPRPGLEPRP"
  shrunken log2 fold change: 0.134
- primary.sequence: "RRIRYRPPRLPRPRPRPQKWPRP"
  shrunken log2 fold change: -0.16

Prompt: Given the sequence RRIRGRPPRLPRPRPRPRFKPRP , what is its reported shrunken log2 fold change?
Response: 0.449

Prompt: Which shrunken log2 fold change value is on record for RRIRCRPPRLPRPRPRPDIIPRP ?
Response: -0.132

Prompt: // returns reported shrunken log2 fold change for input RRIRVRPPRLPRPRPRPHVMPRP
Response: -0.526

Prompt: Quick check: shrunken log2 fold change of RRIRERPPRLPRPRPRPKAHPRP ?
Response: 0.107

Prompt: I have this sequence here, RRIRKRPPRLPRPRPRPTDSPRP , and I need its recorded shrunken log2 fold change.
Response: -0.0461

Prompt: Give the measured shrunken log2 fold change of RRIRGRPPRLPRPRPRPMKIPRP .
Response: 0.533

Prompt: Item RRIRERPPRLPRPRPRPWYSPRP has what recorded shrunken log2 fold change?
Response: -0.798

Prompt: Any idea what shrunken log2 fold change was measured for RRIRYRPPRLPRPRPRPTGPPRP ?
Response: 0.0492

Prompt: # input sequence: RRIRSRPPRLPRPRPRPPSGPRP ; wanted: its shrunken log2 fold change
Response: 0.489

Prompt: Field request: shrunken log2 fold change | item: RRIRCRPPRLPRPRPRPHGRPRP
Response: 0.0979

Prompt: Look up shrunken log2 fold change: RRIRVRPPRLPRPRPRPEAMPRP
Response: -0.0277

---

# Tested on: Escherichia coli TOP10
# experimental.details: shrunken log2 fold change of peptide-encoding DNA abundance (4.5 h post-induction vs induction); higher = less antimicrobial activity (less host growth inhibition)
# condition.summary: time post-induction: 4.5 h; library: site-saturation at positions 5, 18, 19, 20
readout: shrunken log2 fold change
A bare number is all that is needed in reply.

Prompt: Please state recorded shrunken log2 fold change (tested on Escherichia coli TOP10) of RRIRPRPPRLPRPRPRPHVKPRP
Response: -0.013

Prompt: Notebook entry, Escherichia coli TOP10 assay: shrunken log2 fold change of RRIRRRPPRLPRPRPRPFLWPRP = ?
Response: 0.173

Prompt: Request body: readout shrunken log2 fold change, system Escherichia coli TOP10, query RRIRQRPPRLPRPRPRPSWYPRP . Return the value.
Response: -0.0733

Prompt: Identify the measured shrunken log2 fold change of RRIRLRPPRLPRPRPRPVIDPRP for Escherichia coli TOP10.
Response: -0.182

Prompt: Item RRIRQRPPRLPRPRPRPARVPRP with Escherichia coli TOP10 - shrunken log2 fold change?
Response: 0.109

---

# Test system: Escherichia coli TOP10
# experimental.details: shrunken log2 fold change of peptide-encoding DNA abundance (4.5 h post-induction vs induction); higher = less antimicrobial activity (less host growth inhibition)
# condition.summary: time post-induction: 4.5 h; library: site-saturation at positions 5, 18, 19, 20
readout: shrunken log2 fold change
No unit in the answer, please; the number alone is enough.

Reference set, count: 6
- primary.sequence: "RRIRKRPPRLPRPRPRPKAIPRP"
  shrunken log2 fold change: 0.0275
- primary.sequence: "RRIRMRPPRLPRPRPRPTHAPRP"
  shrunken log2 fold change: 0.995
- primary.sequence: "RRIRMRPPRLPRPRPRPIQRPRP"
  shrunken log2 fold change: 0.544
- primary.sequence: "RRIRIRPPRLPRPRPRPQFKPRP"
  shrunken log2 fold change: -0.609
- primary.sequence: "RRIRQRPPRLPRPRPRPPVWPRP"
  shrunken log2 fold change: 0.223
- primary.sequence: "RRIRARPPRLPRPRPRPAKQPRP"
  shrunken log2 fold change: -0.197

Prompt: GET /values?readout=shrunken log2 fold change&item= RRIRARPPRLPRPRPRPITCPRP
Response: -0.119

Prompt: // lookup shrunken log2 fold change for RRIRGRPPRLPRPRPRPDRKPRP
Response: 0.051

Prompt: Requested field: shrunken log2 fold change. Item: RRIRKRPPRLPRPRPRPCIMPRP
Response: 1.3

Prompt: Need shrunken log2 fold change, item RRIRKRPPRLPRPRPRPQKRPRP
Response: 0.403

Prompt: Fill in the blank: the reported shrunken log2 fold change of RRIRSRPPRLPRPRPRPLWWPRP is ____.
Response: 0.35

Prompt: Dear colleague, I am looking for the recorded shrunken log2 fold change of the following sequence: RRIRSRPPRLPRPRPRPGPSPRP
Response: 0.456

---

Attribute: shrunken log2 fold change
# System: Escherichia coli TOP10
# experimental.details: shrunken log2 fold change of peptide-encoding DNA abundance (4.5 h post-induction vs induction); higher = less antimicrobial activity (less host growth inhibition)
# condition.summary: time post-induction: 4.5 h; library: site-saturation at positions 5, 18, 19, 20
// return a plain number; no unit text

The following sequences have reported results that may help.
- primary.sequence: "RRIRRRPPRLPRPRPRPNNIPRP"
  shrunken log2 fold change: -0.556
- primary.sequence: "RRIRARPPRLPRPRPRPFGWPRP"
  shrunken log2 fold change: 0.24
- primary.sequence: "RRIRVRPPRLPRPRPRPKTHPRP"
  shrunken log2 fold change: -0.0994

Note: attention shifts to another entry.
Prompt: Quick check: shrunken log2 fold change of RRIRYRPPRLPRPRPRPSKCPRP ?
Response: -0.00419

---

# Tested on: Escherichia coli TOP10
# experimental.details: shrunken log2 fold change of peptide-encoding DNA abundance (4.5 h post-induction vs induction); higher = less antimicrobial activity (less host growth inhibition)
# condition.summary: time post-induction: 4.5 h; library: site-saturation at positions 5, 18, 19, 20
readout: shrunken log2 fold change
// return just the number, without any unit appended

- primary.sequence: "RRIRYRPPRLPRPRPRPFPCPRP"
  shrunken log2 fold change: -0.467

Prompt: Which shrunken log2 fold change value belongs to RRIRKRPPRLPRPRPRPYIVPRP ?
Response: -0.404

Prompt: What does the data say about its shrunken log2 fold change? Entry: RRIRGRPPRLPRPRPRPMIRPRP
Response: 0.147

Prompt: Please report the recorded shrunken log2 fold change for RRIRMRPPRLPRPRPRPEPMPRP .
Response: 0.386

Prompt: // returns reported shrunken log2 fold change for input RRIRSRPPRLPRPRPRPIYQPRP
Response: -0.158

Prompt: Can you share its shrunken log2 fold change? I mean this sequence: RRIRNRPPRLPRPRPRPWRRPRP
Response: -0.0717

Prompt: What does the data say about its shrunken log2 fold change? Entry: RRIRGRPPRLPRPRPRPVPWPRP
Response: 0.526

Prompt: # get_value(readout='shrunken log2 fold change', item= RRIRSRPPRLPRPRPRPYQSPRP )
Response: 0.0187

---

# Test system: Escherichia coli TOP10;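 further: peptides expressed intracellularly from a pBAD plasmid library in pooled LB shake-flask culture, induced with 0.3% L-arabinose, DNA abundance read by NGS, three biological replicates, DESeq2 with apeglm shrinkage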
# experimental.details: shrunken log2 fold change of peptide-encoding DNA abundance (4.5 h post-induction vs induction); higher = less antimicrobial activity (less host growth inhibition)
# condition.summary: time post-induction: 4.5 h; library: site-saturation at positions 5, 18, 19, 20
readout: shrunken log2 fold change
Write the number on its own, no unit after it.

- primary.sequence: "RRIRDRPPRLPRPRPRPKFPPRP"
  assay.system: "Escherichia coli TOP10"
  readout: "shrunken log2 fold change"
  meas.value: -0.237

Prompt: Quick one: shrunken log2 fold change for RRIRPRPPRLPRPRPRPMNSPRP ?
Response: -0.125

Prompt: // query shrunken log2 fold change value for entry RRIRVRPPRLPRPRPRPSHYPRP
Response: -0.68
